Biological target: human COX-2 (Homo sapiens)
Sequence (P35354 18-604): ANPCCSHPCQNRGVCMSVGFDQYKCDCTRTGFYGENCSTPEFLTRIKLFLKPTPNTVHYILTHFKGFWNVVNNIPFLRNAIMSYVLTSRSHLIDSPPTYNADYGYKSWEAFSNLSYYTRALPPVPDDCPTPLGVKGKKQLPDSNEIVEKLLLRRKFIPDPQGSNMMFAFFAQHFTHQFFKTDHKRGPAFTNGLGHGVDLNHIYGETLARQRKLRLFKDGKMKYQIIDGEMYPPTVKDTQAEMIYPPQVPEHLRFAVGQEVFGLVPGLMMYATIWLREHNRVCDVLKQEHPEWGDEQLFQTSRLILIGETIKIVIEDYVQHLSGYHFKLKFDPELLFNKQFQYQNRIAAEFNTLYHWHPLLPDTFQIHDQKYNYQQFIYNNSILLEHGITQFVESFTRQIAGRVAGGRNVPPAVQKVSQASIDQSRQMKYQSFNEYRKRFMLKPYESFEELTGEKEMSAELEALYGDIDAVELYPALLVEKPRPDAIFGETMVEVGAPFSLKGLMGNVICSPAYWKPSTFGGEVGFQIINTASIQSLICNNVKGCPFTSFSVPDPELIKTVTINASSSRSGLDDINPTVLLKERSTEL
pIC50: −log10 of the molar value.
value-kind: pIC50

[[record]]
compound = "COc1ccc2c(c1)c(CC(=O)NCCNC(=O)c1ccc(C(=O)[O-])c(C3=c4cc5c6c(c4Oc4c3cc3c7c4CCCN7CCC3)CCC[N+]=6CCC5)c1)c(C)n2C(=O)c1ccc(Cl)cc1 [compound 3]"
target_under_test = "human COX-2 (Homo sapiens)"
result = "< 5.40"


Source of measurements: paper PMC2864539
